Data provenance: patent US20200115466A1

biological target: T1, MUC1 on the surface of lung cancer cell line H838 (UniProt P15941 24-1255, limits assumed, tumour-type glycosylation (GalNAc epitope RPAPGS(GalNAc)TAPPAHG), as the filing describes the antigen); experiment: flow cytometry, surface staining of H838 cells, PE anti-human IgG
T1 construct: whole, on cells; No MUC1-negative control of H838 is reported; also called antigen
T1 sequence (P15941 24-1255 limits assumed): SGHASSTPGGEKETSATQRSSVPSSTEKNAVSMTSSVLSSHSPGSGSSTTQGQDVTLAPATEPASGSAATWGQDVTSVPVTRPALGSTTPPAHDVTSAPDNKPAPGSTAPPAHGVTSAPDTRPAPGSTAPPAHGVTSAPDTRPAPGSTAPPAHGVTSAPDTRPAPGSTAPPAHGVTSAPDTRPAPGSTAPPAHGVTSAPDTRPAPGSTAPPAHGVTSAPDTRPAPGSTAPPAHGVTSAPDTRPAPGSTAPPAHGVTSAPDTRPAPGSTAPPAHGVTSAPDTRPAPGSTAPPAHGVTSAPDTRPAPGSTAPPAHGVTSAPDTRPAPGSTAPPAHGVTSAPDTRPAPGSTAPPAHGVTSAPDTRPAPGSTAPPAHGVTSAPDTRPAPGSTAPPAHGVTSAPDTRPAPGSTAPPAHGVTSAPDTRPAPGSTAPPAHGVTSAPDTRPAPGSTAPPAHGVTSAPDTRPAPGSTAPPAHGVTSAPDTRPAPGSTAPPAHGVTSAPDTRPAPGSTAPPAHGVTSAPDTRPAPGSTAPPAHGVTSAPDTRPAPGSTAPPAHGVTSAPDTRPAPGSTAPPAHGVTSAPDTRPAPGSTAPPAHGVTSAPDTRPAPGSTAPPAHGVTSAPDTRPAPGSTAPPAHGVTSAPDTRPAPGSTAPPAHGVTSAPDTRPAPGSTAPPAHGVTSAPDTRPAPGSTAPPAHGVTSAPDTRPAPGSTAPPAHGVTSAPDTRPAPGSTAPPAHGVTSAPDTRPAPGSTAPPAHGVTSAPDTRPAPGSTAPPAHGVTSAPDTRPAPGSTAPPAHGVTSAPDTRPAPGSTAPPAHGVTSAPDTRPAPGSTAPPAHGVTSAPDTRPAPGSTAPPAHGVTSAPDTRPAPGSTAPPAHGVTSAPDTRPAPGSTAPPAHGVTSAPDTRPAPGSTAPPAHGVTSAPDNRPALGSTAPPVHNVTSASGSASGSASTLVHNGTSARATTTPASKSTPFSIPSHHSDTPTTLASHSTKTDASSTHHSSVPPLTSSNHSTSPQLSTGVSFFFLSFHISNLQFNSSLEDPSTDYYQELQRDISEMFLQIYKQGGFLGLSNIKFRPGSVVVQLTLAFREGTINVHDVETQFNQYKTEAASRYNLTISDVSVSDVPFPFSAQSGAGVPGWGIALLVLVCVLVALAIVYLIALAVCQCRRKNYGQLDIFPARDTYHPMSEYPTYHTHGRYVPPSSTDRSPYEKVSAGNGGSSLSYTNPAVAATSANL
reportedMetric: Minimum concentration of binding to lung cancer cell line H838 (µg/mL)
Write the number in µg/mL without appending the unit.

Example entries and their recorded answers appear below.
binder	testValue
humanized 16A antibody hVH2hVL2 (antibody, human IgG1, lambda, V domains shown, CDR-grafted humanized antibody; also called Humanized HC 2 (H2988) with Humanized LC2 (L2988)) VH: EVQLVESGGGLVQPGGSLRLSCAVSGIDFSRYWMSWVRQAPGKGLEWVGEITPDSNTINYVPSVKGRFTISRDNAKNSLYLQMNSLRAEDTAVYYCASYYEGFAYWGQGTLVTVSS VL: QAVVTQEPSLTVSPGGTVTLTCGSSTGAVITSNYANWVQQKPGQAPTGLIGRTYNKVPWTPARFSGSLLGDKAALTLSGAQPEDEAEYFCALWYSNHFVFGGGTKLTVLG	0.025
humanized 16A antibody hVH3hVL2 (antibody, human IgG1, lambda, V domains shown, CDR-grafted humanized antibody; also called Humanized HC 3 (H2989) with Humanized LC2 (L2988)) VH: EVKLVESGGGLVQPGGSLRLSCAVSGIDFSRYWMSWVRQAPGKGLEWVGEITPDSNTINYVPSVKGRFTISRDNAKNSLYLQMNSLRAEDTAVYFCASYYEGFAYWGQGTLVTVSS VL: QAVVTQEPSLTVSPGGTVTLTCGSSTGAVITSNYANWVQQKPGQAPTGLIGRTYNKVPWTPARFSGSLLGDKAALTLSGAQPEDEAEYFCALWYSNHFVFGGGTKLTVLG	0.025
humanized 16A antibody hVH5hVL2 (antibody, human IgG1, lambda, V domains shown, CDR-grafted humanized antibody; also called Humanized HC 5 (H2991) with Humanized LC2 (L2988)) VH: EVQLVESGGGLVQPGGSLRLSCVVSGIDFSRYWMSWVRQAPGKGLEWVGEITPDSNTINYVPSVKGRFGISRDNAKNSLYLQMNSLRAEDTAVYFCASYYEGFAYWGQGTLVTVSS VL: QAVVTQEPSLTVSPGGTVTLTCGSSTGAVITSNYANWVQQKPGQAPTGLIGRTYNKVPWTPARFSGSLLGDKAALTLSGAQPEDEAEYFCALWYSNHFVFGGGTKLTVLG	0.025
humanized 16A antibody hVH4hVL2 (antibody, human IgG1, lambda, V domains shown, CDR-grafted humanized antibody; also called Humanized HC 4 (H2990) with Humanized LC2 (L2988)) VH: EVQLVESGGGLVQPGGFLRLSCVVSGIDFSRYWMSWVRQAPGKGLEWVGEITPDSNTINYVPSVKGNFGISRDNAKNSLFLQMNSLRAEDTAVYFCASYYEGFAYWGQGTLVTVSS VL: QAVVTQEPSLTVSPGGTVTLTCGSSTGAVITSNYANWVQQKPGQAPTGLIGRTYNKVPWTPARFSGSLLGDKAALTLSGAQPEDEAEYFCALWYSNHFVFGGGTKLTVLG	0.05
humanized 16A antibody hVH1hVL2 (antibody, human IgG1, lambda, V domains shown, CDR-grafted humanized antibody; also called Humanized HC 1 (H2987) with Humanized LC2 (L2988)) VH: EVQLVESGGGLVQPGGSLRLSCAVSGIDFSRYWMSWVRQAPGKGLEWVAEITPDSNTINYVPSVKGRFTISRDNAKNSLYLQMNSLRAEDTAVYYCASYYEGFAYWGQGTLVTVSS VL: QAVVTQEPSLTVSPGGTVTLTCGSSTGAVITSNYANWVQQKPGQAPTGLIGRTYNKVPWTPARFSGSLLGDKAALTLSGAQPEDEAEYFCALWYSNHFVFGGGTKLTVLG	0.025

Continue with the binder presented below.
Which value of Minimum concentration of binding to lung cancer cell line H838 has been reported for mouse-human chimeric antibody 16A (antibody, human IgG1, lambda, V domains shown, Murine 16A VH and VL joined to human IgG1 constant region and human lambda 2 light chain; also called chimeric 16A; 16A chimeric antibody) VH: EVKLHQSGGGLVQPGGFLKISCVVSGIDFSRYWMSWVRRAPGKGLEWIGEITPDSNTINYVPSLKDNFGISRDNAKNTLFLQMTKVRSEDTALYFCASYYEGFAYWGQGTLVTVSA VL: QAVVTQESALTTSPGETVTLTCRSSTGAVITSNYANWVQEKPDHLFTGLIGRTYNRVPGVPARFSGSLIGDKAALTITGAQTEDEAIYFCALWYSNHFVFGGGTKLTVLG in the records? 0.0125
